molecular target: biotinylated labeled human GPC3 protein (produced in-house) (human, UniProt P51654 25-559, limits assumed, biotinylated (Dojindo, Cat. No. LK03); sites not stated); test: ELISA, biotinylated human GPC3 protein
endpoint: OD450 at 0.004 nM

Requested field: OD450 at 0.004 nM. Item: hAb006LH2L1b (antibody, human IgG1, V domains shown, Humanized F3.38.7; VH H2 + VL L1b; expressed as human IgG1) VH: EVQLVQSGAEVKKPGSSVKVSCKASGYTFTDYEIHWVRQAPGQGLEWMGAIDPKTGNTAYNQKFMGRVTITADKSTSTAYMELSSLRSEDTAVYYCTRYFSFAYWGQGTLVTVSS VL: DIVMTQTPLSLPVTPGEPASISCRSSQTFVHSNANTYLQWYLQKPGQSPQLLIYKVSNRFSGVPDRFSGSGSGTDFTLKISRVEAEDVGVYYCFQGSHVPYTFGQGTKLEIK 0.316 OD450

hAb006LH3L1 (antibody, human IgG1, V domains shown, Humanized F3.38.7; VH H3 + VL L1; expressed as human IgG1) VH: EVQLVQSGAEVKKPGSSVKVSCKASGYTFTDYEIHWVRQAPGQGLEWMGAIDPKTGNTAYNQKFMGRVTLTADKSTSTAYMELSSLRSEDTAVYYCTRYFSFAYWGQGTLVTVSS VL: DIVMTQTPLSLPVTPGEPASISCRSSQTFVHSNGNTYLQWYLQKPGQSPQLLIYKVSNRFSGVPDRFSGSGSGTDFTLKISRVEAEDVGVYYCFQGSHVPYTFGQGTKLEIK ? 0.287 OD450

The reported measurements were obtained from patent US20260116991A1.
